- assayed-system: AGTR1 (Homo sapiens)
- Construct: host or cells: Pathunter CHO-K1 AGTR1 β-arrestin cell line (CHO-K1)
- Sequence (P30556 whole entry): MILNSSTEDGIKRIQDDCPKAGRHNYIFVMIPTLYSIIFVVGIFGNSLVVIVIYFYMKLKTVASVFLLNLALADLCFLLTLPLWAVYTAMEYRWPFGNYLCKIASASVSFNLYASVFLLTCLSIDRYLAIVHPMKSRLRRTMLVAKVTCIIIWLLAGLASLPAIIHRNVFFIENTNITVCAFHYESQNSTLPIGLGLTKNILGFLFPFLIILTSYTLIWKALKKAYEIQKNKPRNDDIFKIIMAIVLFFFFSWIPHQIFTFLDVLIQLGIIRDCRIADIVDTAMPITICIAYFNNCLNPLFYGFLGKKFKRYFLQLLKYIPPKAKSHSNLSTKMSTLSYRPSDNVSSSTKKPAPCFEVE
- protocol-summary: DiscoveRx β-arrestin2 recruitment assay (enzyme complementation, Pathunter CHO-K1 AGTR1 β-arrestin cell line)
- Assay type: cell-based
- measurement-context: DiscoveRx β-arrestin2 recruitment, maximal response
Please provide measured DiscoveRx β-arrestin2 Ymax (%) for the entries that follow.
Give bare numbers, in %.

Prompt line: I'd like to know its DiscoveRx β-arrestin2 Ymax (%). The molecule in question is CCCCc1nc(Cl)c(C(=O)O)n1Cc1ccc(-c2cc(-c3cc(N(C)C)ccn3)ccc2-c2nn[nH]n2)cc1 [Example 422]
Response line: 26.7

Prompt line: # iterate: CCOc1nc2cccc(C(=O)O)c2n1Cc1ccc(-c2cc(Oc3cccnc3)ccc2-c2nn[nH]n2)cc1 [Example 333]
Response line: 67.8

Prompt line: # iterate: CCc1nc2c(C)cc(C)nc2n1Cc1ccc(-c2cc(-c3cn(CC4CC4)nn3)ccc2-c2nnn[nH]2)cc1 [Example 237]
Response line: 62.3

Note: attention shifts to another entry.
Prompt line: I'd like to know its DiscoveRx β-arrestin2 Ymax (%). The molecule in question is CCCCOC(=O)NS(=O)(=O)c1sc(-c2ccccc2C(F)(F)F)cc1-c1ccc(Cn2c(CC)nc3c(C)cc(C)nc32)cn1 [Example 46]
Response line: 45.1
